Listed here: items and their measured clearance.
Experiment: In vivo pharmacokinetic experiment in rats
Settings: rat, plasma, 1 mg/kg; IV 1 mpk, male Sprague-Dawley rats, n = 3

Below, 2 compounds whose answers are already recorded.
- compound: "C[C@H](c1ccc(COc2cccc3c2CN([C@H]2CCC(=O)NC2=O)C3=O)cc1)N1CCN(c2ccc(C#N)nc2)CC1 [Compound 21]"
  measuredValue: "14 mL/min/kg"
- compound: "CC(C)(c1ccc(COc2cccc3c2CN([C@H]2CCC(=O)NC2=O)C3=O)cc1)N1CCOCC1 [Compound 5]"
  measuredValue: "110 mL/min/kg"

Now for a further compound.
// query Fill in: clearance of C[C@H](c1ccc(COc2cccc3c2CN([C@H]2CCC(=O)NC2=O)C3=O)cc1)N1CCN(c2ccc(C#N)cn2)CC1 [Compound 16] is ___
// result 5.2 mL/min/kg

---

System: IL-2
Test: Stimulation of IL-2 secretion in anti-CD3-stimulated hPBMC (ELISA)
Assay type: cell-based, human
Details: Homo sapiens, anti-CD3 antibody, 72 hours
The following compounds are listed with their measured EC50 values.
Supply the numeric figure in nM, leaving out any unit text.

- compound: "C[C@@H](c1ccc(COc2cccc3c2CN([C@H]2CCC(=O)NC2=O)C3=O)cc1)N1CCN(c2ccc(C#N)cc2F)CC1"
  EC50, nM: 3.2
- compound: "O=C1CCC(N2Cc3c(OCc4ccc(C5(N6CCOCC6)CC5)cc4)cccc3C2=O)C(=O)N1 (stereo not drawn)"
  EC50, nM: 10
- compound: "C[C@H](c1ccc(COc2cccc3c2CN(C2CCC(=O)NC2=O)C3=O)cc1)N1CCOCC1 (stereo partly drawn)"
  EC50, nM: 8
- compound: "CC(C)(c1ccc(COc2cccc3c2CN([C@H]2CCC(=O)NC2=O)C3=O)cc1)N1CCN(c2ccc(C#N)cc2F)CC1"
  EC50, nM: 4
- compound: "C[C@H](c1ccc(COc2cccc3c2CN([C@H]2CCC(=O)NC2=O)C3=O)cc1)N1CCN(c2ccc(C#N)cc2F)CC1"
  EC50, nM: 2.3

Read the next record carefully.
// query Entry `C[C@H](c1ccc(COc2cccc3c2CN([C@H]2CCC(=O)NC2=O)C3=O)cc1)N1CCN(c2ccncc2F)CC1` has what EC50?
// result 1.9

---

Test: In vivo pharmacokinetic experiment in rats
Conditions: rat, plasma, 5 mg/kg; PO 5 mpk, male Sprague-Dawley rats, n = 3
# reported Cmax; entries follow
A number alone suffices; assume ng/mL.

Recorded Cmax, per entry:
- molecule: "C[C@H](c1ccc(COc2cccc3c2CN([C@H]2CCC(=O)NC2=O)C3=O)cc1)N1CCN(c2ccc(C#N)cc2F)CC1 [Compound 6]"
  measuredValue: 1800
- molecule: "C[C@H](c1ccc(COc2cccc3c2CN([C@H]2CCC(=O)NC2=O)C3=O)cc1)N1CCN(c2ncc(C#N)cc2F)CC1 [Compound 22]"
  measuredValue: 1440
- molecule: "C[C@@H](c1ccc(COc2cccc3c2CN([C@H]2CCC(=O)NC2=O)C3=O)cc1)N1CCN(c2ccc(C#N)cc2F)CC1 [Compound 7]"
  measuredValue: 121
- molecule: "C[C@H](c1ccc(COc2cccc3c2CN([C@H]2CCC(=O)NC2=O)C3=O)cc1)N1CCN(c2ccc(C#N)cn2)CC1 [Compound 16]"
  measuredValue: 555
- molecule: "C[C@H](c1ccc(COc2cccc3c2CN([C@H]2CCC(=O)NC2=O)C3=O)cc1)N1CCN(c2ccc(C#N)nc2)CC1 [Compound 21]"
  measuredValue: 318
- molecule: "CC(C)(c1ccc(COc2cccc3c2CN([C@H]2CCC(=O)NC2=O)C3=O)cc1)N1CCOCC1 [Compound 5]"
  measuredValue: 1.6

Moving on to another molecule below.
// query Query (molecule): C[C@H](c1ccc(COc2cccc3c2CN(C2CCC(=O)NC2=O)C3=O)cc1)N1CCOCC1 (stereo partly shown) [Compound 3] ; field requested: Cmax
// result 105

---

Test: In vivo pharmacokinetic experiment in rats
Conditions: rat, plasma, 1 mg/kg; IV 1 mpk, male Sprague-Dawley rats, n = 3
Measured clearance values are reported for all entries that follow.

- molecule: "C[C@@H](c1ccc(COc2cccc3c2CN([C@H]2CCC(=O)NC2=O)C3=O)cc1)N1CCN(c2ccc(C#N)cc2F)CC1 [Compound 7]"
  clearance: "13 mL/min/kg"
- molecule: "C[C@H](c1ccc(COc2cccc3c2CN([C@H]2CCC(=O)NC2=O)C3=O)cc1)N1CCN(c2ncc(C#N)cc2F)CC1 [Compound 22]"
  clearance: "2.2 mL/min/kg"

// query What clearance value was documented for this molecule, C[C@H](c1ccc(COc2cccc3c2CN([C@H]2CCC(=O)NC2=O)C3=O)cc1)N1CCN(c2ccc(C#N)cc2F)CC1 [Compound 6] ?
// result 1 mL/min/kg

// query // same read-out, input: C[C@H](c1ccc(COc2cccc3c2CN(C2CCC(=O)NC2=O)C3=O)cc1)N1CCOCC1 (stereo partly shown) [Compound 3]
// result 61 mL/min/kg

---

Target: hERG potassium ion channel (Homo sapiens, UniProt Q12809)
Sequence (Q12809 whole entry): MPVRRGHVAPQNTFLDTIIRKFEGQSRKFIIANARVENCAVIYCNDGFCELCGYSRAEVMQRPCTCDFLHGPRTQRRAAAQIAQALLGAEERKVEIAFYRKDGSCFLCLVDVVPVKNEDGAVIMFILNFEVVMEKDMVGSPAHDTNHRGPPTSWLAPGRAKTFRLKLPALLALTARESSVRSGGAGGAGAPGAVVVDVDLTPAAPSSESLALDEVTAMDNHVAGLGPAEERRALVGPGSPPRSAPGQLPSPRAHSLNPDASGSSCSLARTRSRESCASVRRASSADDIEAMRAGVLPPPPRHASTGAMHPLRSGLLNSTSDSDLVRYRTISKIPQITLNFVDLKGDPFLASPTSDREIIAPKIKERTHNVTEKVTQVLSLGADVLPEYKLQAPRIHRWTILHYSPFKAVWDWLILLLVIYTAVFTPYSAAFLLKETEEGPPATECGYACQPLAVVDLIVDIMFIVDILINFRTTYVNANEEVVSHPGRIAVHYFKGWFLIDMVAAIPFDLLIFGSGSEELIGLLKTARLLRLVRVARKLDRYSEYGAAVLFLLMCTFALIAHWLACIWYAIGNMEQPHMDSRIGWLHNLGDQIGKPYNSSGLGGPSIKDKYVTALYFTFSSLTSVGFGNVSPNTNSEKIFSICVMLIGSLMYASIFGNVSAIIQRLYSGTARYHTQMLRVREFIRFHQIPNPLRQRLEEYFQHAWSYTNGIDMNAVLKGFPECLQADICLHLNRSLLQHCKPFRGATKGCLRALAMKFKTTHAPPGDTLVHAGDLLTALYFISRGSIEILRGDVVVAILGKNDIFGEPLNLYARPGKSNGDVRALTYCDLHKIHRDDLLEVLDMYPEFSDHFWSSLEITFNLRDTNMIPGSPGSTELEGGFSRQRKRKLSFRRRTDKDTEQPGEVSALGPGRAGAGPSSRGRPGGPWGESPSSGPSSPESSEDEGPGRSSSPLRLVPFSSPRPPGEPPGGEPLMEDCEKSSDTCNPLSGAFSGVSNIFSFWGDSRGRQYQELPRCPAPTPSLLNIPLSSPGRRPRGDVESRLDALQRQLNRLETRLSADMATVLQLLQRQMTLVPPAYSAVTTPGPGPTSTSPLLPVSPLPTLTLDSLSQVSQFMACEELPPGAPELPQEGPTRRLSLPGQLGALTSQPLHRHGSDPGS
Test: Blockade of the hERG potassium ion channel (whole cell patch clamp)
Assay type: cell-based
Conditions: HEK293 cells stably overexpressing hERG, pH 7.4, tail current, read-out: The percentage of the inhibition to the hERG current at the solubility of 3 μM (n = 2)
endpointLabel: inhibition at 5 min, 3 µM (%)
Respond numerically; units are % and should not be typed.

- compound: "C[C@H](c1ccc(COc2cccc3c2CN([C@H]2CCC(=O)NC2=O)C3=O)cc1)N1CCN(c2ccc(C#N)cn2)CC1"
  readoutUnits: "%"
  inhibition at 5 min, 3 µM: 58
- compound: "C[C@H](c1ccc(COc2cccc3c2CN([C@H]2CCC(=O)NC2=O)C3=O)cc1)N1CCN(c2ccc(C#N)cc2F)CC1"
  readoutUnits: "%"
  inhibition at 5 min, 3 µM: 52
- compound: "C[C@H](c1ccc(COc2cccc3c2CN([C@H]2CCC(=O)NC2=O)C3=O)cc1)N1CCN(c2ncc(C#N)cc2F)CC1"
  readoutUnits: "%"
  inhibition at 5 min, 3 µM: 20

// query For the compound shown here, `C[C@H](c1ccc(COc2cccc3c2CN([C@H]2CCC(=O)NC2=O)C3=O)cc1)N1CCN(c2ccc(C#N)nc2)CC1` , give the reported inhibition at 5 min, 3 µM.
// result 49

// query Here is the next compound: N#Cc1ccc(N2CCN(Cc3ccc(COc4cccc5c4CN([C@H]4CCC(=O)NC4=O)C5=O)cc3)CC2)c(F)c1 [CC-92480, reference compound]
// result 76

---

Assay: In vivo pharmacokinetic experiment in rats
Conditions: rat, plasma, 5 mg/kg; PO 5 mpk, male Sprague-Dawley rats, n = 3
Parameter: AUC(0-t). Scope: all listed entries.

Example entries and their recorded answers appear below.
- compound: "C[C@H](c1ccc(COc2cccc3c2CN([C@H]2CCC(=O)NC2=O)C3=O)cc1)N1CCN(c2ccc(C#N)cc2F)CC1"
  AUC(0-t): "11.8 µg·h/mL"
- compound: "C[C@H](c1ccc(COc2cccc3c2CN([C@H]2CCC(=O)NC2=O)C3=O)cc1)N1CCN(c2ncc(C#N)cc2F)CC1"
  AUC(0-t): "13 µg·h/mL"

// query Requested read-out: AUC(0-t). Entry: `C[C@@H](c1ccc(COc2cccc3c2CN([C@H]2CCC(=O)NC2=O)C3=O)cc1)N1CCN(c2ccc(C#N)cc2F)CC1`
// result 1.2 µg·h/mL

// query How about this compound: `C[C@H](c1ccc(COc2cccc3c2CN([C@H]2CCC(=O)NC2=O)C3=O)cc1)N1CCN(c2ccc(C#N)cn2)CC1`
// result 4.28 µg·h/mL

---

Experiment: In vivo pharmacokinetic experiment in rats
Conditions: rat, plasma, 1 mg/kg; IV 1 mpk, male Sprague-Dawley rats, n = 3; read-out: VSS
endpointLabel: Vd (L/kg)
# number only, unit L/kg dropped from output

Below: 5 compounds and their reported Vd.
- compound: "C[C@@H](c1ccc(COc2cccc3c2CN([C@H]2CCC(=O)NC2=O)C3=O)cc1)N1CCN(c2ccc(C#N)cc2F)CC1 [Compound 7]"
  measuredValue: 2.4
- compound: "CC(C)(c1ccc(COc2cccc3c2CN([C@H]2CCC(=O)NC2=O)C3=O)cc1)N1CCOCC1 [Compound 5]"
  measuredValue: 3.3
- compound: "C[C@H](c1ccc(COc2cccc3c2CN([C@H]2CCC(=O)NC2=O)C3=O)cc1)N1CCN(c2ccc(C#N)cn2)CC1 [Compound 16]"
  measuredValue: 0.56
- compound: "C[C@H](c1ccc(COc2cccc3c2CN(C2CCC(=O)NC2=O)C3=O)cc1)N1CCOCC1 (stereo partly shown) [Compound 3]"
  measuredValue: 4.2
- compound: "C[C@H](c1ccc(COc2cccc3c2CN([C@H]2CCC(=O)NC2=O)C3=O)cc1)N1CCN(c2ccc(C#N)cc2F)CC1 [Compound 6]"
  measuredValue: 0.27

// query Entry C[C@H](c1ccc(COc2cccc3c2CN([C@H]2CCC(=O)NC2=O)C3=O)cc1)N1CCN(c2ncc(C#N)cc2F)CC1 [Compound 22] has what Vd?
// result 0.36

// query Similarly, C[C@H](c1ccc(COc2cccc3c2CN([C@H]2CCC(=O)NC2=O)C3=O)cc1)N1CCN(c2ccc(C#N)nc2)CC1 [Compound 21] ?
// result 0.65
